# measured-target: mTGR5 (Mus musculus)
# Construct: expressed in transfected cells; host or cells: CHO-Pi10 clone 4
# Sequence (Q80SS6 whole entry): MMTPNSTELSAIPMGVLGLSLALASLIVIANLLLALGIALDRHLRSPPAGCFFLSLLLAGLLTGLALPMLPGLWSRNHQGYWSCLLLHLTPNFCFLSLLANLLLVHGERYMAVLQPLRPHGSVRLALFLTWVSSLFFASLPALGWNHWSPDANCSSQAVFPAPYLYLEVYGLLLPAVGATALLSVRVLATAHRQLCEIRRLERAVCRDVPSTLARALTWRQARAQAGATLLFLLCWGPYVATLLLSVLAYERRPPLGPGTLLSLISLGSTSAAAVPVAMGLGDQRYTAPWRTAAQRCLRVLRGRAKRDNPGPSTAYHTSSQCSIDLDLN
# assay-info: TGR5 activity: cAMP in mTGR5 CHO-Pi10 clone 4 cells
# Format: cell-based
# assay-setup: 0.5 h; mTGR5 CHO cells, value in parentheses; read-out: (mTGR5 CHO) Efficacy
Catalogue of molecules with associated Emax
measured-attribute: Emax (%)

molecule	measured-target	measured-attribute	value-unit	measured
CC[C@H]1[C@@H](O)[C@@H]2[C@H](C[C@H](O)[C@]3(C)[C@@H]([C@H](C)C[C@@H](F)C(=O)O)CC[C@@H]23)[C@@]2(C)CC[C@@H](O)C[C@@H]12	mTGR5 (Mus musculus)	Emax	%	90
CC[C@H]1[C@@H](O)C2C3CC[C@H]([C@H](C)CC(=O)NCCOS(=O)(=O)[O-])[C@@]3(C)CCC2[C@@]2(C)CC[C@@H](O)C[C@@H]12.[Na+] (stereo partly shown)	mTGR5 (Mus musculus)	Emax	%	107
CC[C@H]1[C@@H](O)[C@@H]2[C@H](C[C@H](O)[C@]3(C)[C@@H]([C@H](C)C[C@H](O)C(=O)O)CC[C@@H]23)[C@@]2(C)CC[C@@H](O)C[C@@H]12	mTGR5 (Mus musculus)	Emax	%	115
CC[C@H]1[C@@H](O)[C@@H]2[C@H](CC[C@]3(C)[C@@H]([C@H](C)CCc4nc(=O)o[nH]4)[C@@H](O)C[C@@H]23)[C@@]2(C)CC[C@@H](O)C[C@@H]12	mTGR5 (Mus musculus)	Emax	%	101
CC[C@H]1[C@@H](O)C2C3CC[C@H]([C@H](C)CCc4noc(=O)[nH]4)[C@@]3(C)CCC2[C@@]2(C)CC[C@@H](O)C[C@@H]12 (stereo partly shown)	mTGR5 (Mus musculus)	Emax	%	99
CC[C@H]1[C@@H](O)C2C3CC[C@H]([C@H](C)CC(F)(F)C(=O)O)[C@@]3(C)CCC2[C@@]2(C)CC[C@@H](O)C[C@@H]12 (stereo partly shown)	mTGR5 (Mus musculus)	Emax	%	102
CC[C@@H]1C2C[C@H](O)CC[C@]2(C)C2CC[C@@]3(C)C(CC[C@@H]3[C@H](C)Cc3nn[nH]n3)C2[C@@H]1O (stereo partly shown)	mTGR5 (Mus musculus)	Emax	%	90
CC[C@H]1[C@@H](O)[C@@H]2[C@H](C[C@H](O)[C@]3(C)[C@@H]([C@H](C)C[C@@H](O)C(=O)O)CC[C@@H]23)[C@@]2(C)CC[C@@H](O)C[C@@H]12	mTGR5 (Mus musculus)	Emax	%	93.5
CC[C@@H]1C2C[C@H](O)CC[C@]2(C)C2CC[C@@]3(C)C(CC[C@@H]3[C@H](C)Cc3nc(=O)o[nH]3)C2[C@@H]1O (stereo partly shown)	mTGR5 (Mus musculus)	Emax	%	111
CC[C@H]1[C@@H](O)C2C3CC[C@H]([C@H](C)CC(=O)NO)[C@@]3(C)CCC2[C@@]2(C)CC[C@@H](O)C[C@@H]12 (stereo partly shown)	mTGR5 (Mus musculus)	Emax	%	101
CC[C@H]1[C@@H](O)[C@@H]2[C@H](CC[C@]3(C)[C@@H]([C@H](C)CCc4nn[nH]n4)[C@@H](O)C[C@@H]23)[C@@]2(C)CC[C@@H](O)C[C@@H]12	mTGR5 (Mus musculus)	Emax	%	101
CC[C@H]1[C@@H](O)C2C3CC[C@H]([C@H](C)CCc4nn[nH]n4)[C@@]3(C)CCC2[C@@]2(C)CC[C@@H](O)C[C@@H]12 (stereo partly shown)	mTGR5 (Mus musculus)	Emax	%	102
CC[C@H]1[C@@H](O)[C@@H]2[C@H](C[C@H](O)[C@]3(C)[C@@H]([C@H](C)C[C@H](F)C(=O)O)CC[C@@H]23)[C@@]2(C)CC[C@@H](O)C[C@@H]12	mTGR5 (Mus musculus)	Emax	%	100
